Test: Phase 1 open-label, fixed-sequence, single-ascending dose and food-effect PK study of MT1621 in adult healthy subjects
Type: in vivo, human
Settings: both sexes, human, plasma, oral, 43.3 mg/kg, 43.3 mg/kg dose level; read-out: geometric mean elimination half-life (converted)
Procedure: A phase 1 study was conducted as an open-label, fixed-sequence, single-ascending dose study in adult healthy subjects designed to evaluate the safety, tolerability, PK, and food-effect of MT1621 (dC and dT). […] Each treatment was assessed by blood and urine PK sampling pre-dose and up to 48 hours post-dose for the determination of dC and dT in plasma and urine PK, and possible future analysis of blood for PD biomarkers. […]
measured.metric: half-life (h)
Write down the numeric answer in h and omit the unit.

In: # query: half-life of entry `Nc1ccn([C@H]2C[C@H](O)[C@@H](CO)O2)c(=O)n1`
Out: 2.16
